# method: growth inhibition of GSK3B-pretreated HCT116 cells – cell-based, CellTiter-Glo, 0.2 to 20 µM (AID 1117336)
# recorded-conditions: HCT116 viability after GSK3B inhibitor, at 20 µM
Activity calls are given as the source filed them.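 The calls were made as follows: active = compounds lowering colon cancer cell viability after pretreatment blocking the GSK3B kinase; inactive = the rest.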
Possible outcomes: active, inactive

compound	discrete-label
O=C(O)c1cc(O)c(O)c(O)c1	inactive
C[n+]1c2cc(N)ccc2cc2ccc(N)cc21 (tested in a mixture with another compound)	active
O=c1[nH]cnc2nc[nH]c12	inactive
C#CCN(C)Cc1ccccc1	inactive
c1cnc(N2CCN(Cc3ccc4c(c3)OCO4)CC2)nc1	inactive
O=C(O)/C=C/c1ccc(Cn2ccnc2)cc1	inactive
CCOC(=O)OC(C)OC1=C(C(=O)Nc2ccccn2)N(C)S(=O)(=O)c2ccccc21 (centres undefined)	inactive
CC(=O)Nc1cccc(O)c1	inactive
CN1CCN(CC(=O)N2c3ccccc3C(=O)Nc3cccnc32)CC1	inactive
CO/N=C1\CN(c2nc3c(cc2F)c(=O)c(C(=O)O)cn3C2CC2)CC1CN (centres undefined)	inactive
CC(=O)O[C@H]1C[C@@H]2CC[C@@H]3[C@H](CC[C@@]4(C)[C@H]3C[C@H]([N+]3(C)CCCCC3)[C@@H]4OC(C)=O)[C@@]2(C)C[C@@H]1N1CCCCC1	inactive
CN1C(C(=O)Nc2ccccn2)=C(O)c2sccc2S1(=O)=O	inactive
CC[N+](C)(C)Cc1ccccc1Br	inactive
Cc1cc2c(C(C)C)c(O)c(O)c(C=O)c2c(O)c1-c1c(C)cc2c(C(C)C)c(O)c(O)c(C=O)c2c1O	active
O=C(COc1ccc(Cl)cc1)N1CCN(Cc2ccc3c(c2)OCO3)CC1	active
CC(NCCC(c1ccccc1)c1ccccc1)c1ccccc1 (centres undefined)	active
CN1CCN(CCCN2c3ccccc3Sc3ccc(Cl)cc32)CC1	inactive
CCCCC1C(=O)N(c2ccccc2)N(c2ccccc2)C1=O	inactive
CCC(=O)c1c(O)cc(O)cc1O	inactive
O=c1cc(CO)occ1O	inactive
O=C(O)c1ccccc1OP(=O)(O)O	inactive
C[N+]1(CCCCC[N+]2(C)CCCC2)CCCC1	inactive
NCC1CCC(C(=O)O)CC1 (centres undefined)	inactive
CC1CCN(CCCC(=O)c2ccc(F)cc2)CC1	inactive

====

# method: drug combination growth inhibition, ovarian cancer – cell-based, oncology-focused library, rucaparib conditional, profiling panel (AID 1508598)
# recorded-conditions: patient-derived ovarian cancer cells, CellTiter-Glo viability, 144 h; at 0.0781 µM; OCI-P5x cells; without rucaparib
Calls of active or inactive are those of the source.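 The calls were made as follows: active = normalized viability below 100% at a tested concentration; inactive = the rest.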
Possible outcomes: active, inactive

compound	discrete-label
O=c1c(O)c(-c2ccc(O)c(O)c2)oc2cc(O)cc(O)c12	inactive
COc1ccccc1OCC(O)CN1CCN(CC(=O)Nc2c(C)cccc2C)CC1 (configuration not stated)	inactive
CCc1c2c(nc3ccc(OC(=O)N4CCC(N5CCCCC5)CC4)cc13)-c1cc3c(c(=O)n1C2)COC(=O)[C@]3(O)CC	inactive
NC(=O)NO	inactive
COc1cc2c(N3CCN(C(=O)Nc4ccc(OC(C)C)cc4)CC3)ncnc2cc1OCCCN1CCCCC1	active
COc1cc2c(Nc3ccc(Br)cc3F)ncnc2cc1OCC1CCN(C)CC1	inactive
Cc1nc(-c2ccc(OCC(C)C)c(C#N)c2)sc1C(=O)O	inactive
N#Cc1ccc(C(c2ccc(C#N)cc2)n2cncn2)cc1	inactive
Cn1nnc2c(C(N)=O)ncn2c1=O	inactive
O=NN(CCCl)C(=O)NC1CCCCC1	inactive
CCC(C)n1ncn(-c2ccc(N3CCN(c4ccc(OC[C@H]5CO[C@](Cn6cncn6)(c6ccc(Cl)cc6Cl)O5)cc4)CC3)cc2)c1=O (some centres not stated)	active
COC(=O)Nc1nc2ccc(C(=O)c3cccs3)cc2[nH]1	active

====

# method: Wnt pathway potentiators raising nuclear beta-catenin – imaging, WNT3A-conditioned medium, mouse C2C12, NPC library, primary screen (AID 1117326)
# recorded-conditions: at 10 µM, stronger effect = higher value

compound	nuclear beta-catenin stimulation / %
COC(=O)C1=C(C)NC(C)=C(C(=O)OC(C)C)C1c1cccc2nonc12 (configuration not stated)	28.6
C[C@@H]1CN(c2c(F)c(N)c3c(=O)c(C(=O)O)cn(C4CC4)c3c2F)C[C@H](C)N1	-1.1
NC(CO)C(=O)NNCc1ccc(O)c(O)c1O (configuration not stated)	13.1
O=C(CCCN1CCN(c2ccccn2)CC1)c1ccc(F)cc1	0.1
O=C(O)CCC(=O)c1ccc(-c2ccccc2)cc1	4.2
C[C@](N)(Cc1ccc(O)cc1)C(=O)O	-0.2
Cc1onc(-c2ccccc2)c1C(=O)N[C@@H]1C(=O)N2[C@@H]1SC(C)(C)[C@@H]2C(=O)O	-2.3
CN1CCC(=C2c3ccccc3CC(=O)c3sccc32)CC1	1.3
Cc1c[nH]c2ccccc12	2
O=C(O)[C@@H]1[C@H]2C[C@H]3c4[nH]c5ccccc5c4CCN3C[C@@H]2CC[C@@H]1O	0.4
COC(=O)[C@H]1[C@H]2C[C@@H]3c4[nH]c5cc(OC)ccc5c4CCN3C[C@H]2C[C@@H](OC(=O)c2cc(OC)c(OC)c(OC)c2)[C@@H]1OC	1.8
CO[C@@]1(NC(=O)CSCC#N)C(=O)N2C(C(=O)O)=C(CSc3nnnn3C)CS[C@@H]21	0.4
O=C(O)CCCCCCCC(=O)O	0.3
Cc1cc(C)nc(NS(=O)(=O)c2ccc(N)cc2)n1	0.2
O=C(O)CCNC(=O)c1ccccc1	3.5
COC1=C(OC)C(=O)C(CCCCCCCCCCO)=C(C)C1=O	-0.4
CC1(C)O[C@@H]2C[C@H]3[C@@H]4C[C@H](F)C5=CC(=O)C=C[C@]5(C)[C@@]4(F)[C@@H](O)C[C@]3(C)[C@]2(C(=O)CO)O1	-1.6
O=c1c(-c2ccccc2)c1-c1ccccc1	40.6
CC(Cc1cccc(C(F)(F)F)c1)NCCOC(=O)c1ccccc1 (configuration not stated)	2.3
COc1cc2c(Nc3ccc(Br)cc3F)ncnc2cc1OCC1CCN(C)CC1	-0.3
CCCCC(CC)CN=C(N)NC(N)=NCCCCCCN=C(N)NC(N)=NCC(CC)CCCC (configuration not stated)	-3.7
O=C(O)c1ccccc1OP(=O)(O)O	0.8

====

Below, each of the molecules is paired with its reported insulin secretion stimulation value.
# method: stimulators of insulin release from INS-1E, primary screen, cell-based, 5 mM glucose, NPC library (AID 1117329)
# recorded-conditions: rat INS-1E insulin secretion, at 10 µM, stronger effect = higher value
measured-quantity: insulin secretion stimulation (%)

molecule	unit-name	observed
CCOC(=O)NNc1nncc2ccccc12	%	3.7
Nc1nc2c(ncn2COC(CO)CO)c(=O)[nH]1	%	0
O=C(COc1ccc(Cl)cc1)N1CCN(Cc2ccc3c(c2)OCO3)CC1	%	2.3
COc1cc(OC)c(C(=O)CCCN2CCCC2)c(OC)c1	%	-1
Cn1c(=O)c2c(ncn2C)n(C)c1=O	%	4.3
COC(=O)C1=C(C)NC(C)=C(C(=O)OCC(C)C)C1c1ccccc1[N+](=O)[O-] (stereo unspecified)	%	1.25
COc1ccc(C(=O)NCc2ccc(OCCN(C)C)cc2)cc1OC	%	0.75
O=c1ccc2ccccc2o1	%	-1.8
CC(=O)[C@@]1(O)CC[C@H]2[C@@H]3C[C@H](C)C4=CC(=O)C=C[C@]4(C)[C@@]3(F)[C@@H](O)C[C@@]21C	%	-1.1
NS(=O)(=O)c1cc2c(cc1Cl)NC(CSCc1ccccc1)=NS2(=O)=O	%	0
O=C(O)c1ccccc1OP(=O)(O)O	%	0.8

====

# method: compounds distorting NS3 helicase fluorescence signal – biochemical, NIH Clinical Collection, artefact control for HCV NS3 helicase inhibitor project (AID 743272);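 also: HCV NS3 helicase with a Cy5 labelled single stranded DNA probe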
# recorded-conditions: fluorescence interference counterscreen, HCV NS3 helicase assay; stronger effect = lower value
Below, each of the compounds is paired with its reported fluorescence ratio value.
measured-quantity: fluorescence ratio

compound	observed
Cc1[nH]cnc1CN1CCc2c(c3ccccc3n2C)C1=O	0.96
CCOC(=O)C1=C(C)NC(C)=C(C(=O)OCC)C1c1ccccc1/C=C/C(=O)OC(C)(C)C	0.9
O=C1CCc2ccc(OCCCCN3CCN(c4cccc(Cl)c4Cl)CC3)cc2N1	1.02
CCCc1c(OCCCCc2nn[nH]n2)ccc(C(C)=O)c1O	0.98
COC1=C(OC)C(=O)C(CCCCCCCCCCO)=C(C)C1=O	0.94
COC(=O)CCc1ccc(OCC(O)CNC(C)C)cc1 (stereo not drawn)	1.01
O=C(NCCO[N+](=O)[O-])c1cccnc1	1.02
O=C1N(c2ccccc2)c2ccccc2C1(Cc1ccncc1)Cc1ccncc1	0.93
Nc1[nH]c(=O)ncc1F	0.97
CC(C)NCC(O)COc1ccc(COCCOC(C)C)cc1 (stereo not drawn)	0.94
COc1cc(C(=O)NC2CCCNC2)cc(OC)c1OC (stereo not drawn)	0.98
NC1CCN(c2nc3c(cc2F)c(=O)c(C(=O)O)cn3-c2ccc(F)cc2F)C1 (stereo not drawn)	0.98
CC(C)(O)c1ccccc1CC[C@@H](SCC1(CC(=O)O)CC1)c1cccc(/C=C/c2ccc3ccc(Cl)cc3n2)c1	1.03
COc1ccc2nc(S(=O)Cc3ncc(C)c(OC)c3C)[nH]c2c1 (stereo not drawn)	0.98
O=C1CC2(CCCC2)CC(=O)N1CCCCN1CCN(c2ncccn2)CC1	1.03
COc1ccc(CN2CCN(C(c3ccc(F)cc3)c3ccc(F)cc3)CC2)c(OC)c1OC	0.91
COc1ccc(C2CNC(=O)C2)cc1OC1CCCC1 (stereo not drawn)	0.98
Oc1c(Cl)cc(Cl)c(Cl)c1Cc1c(O)c(Cl)cc(Cl)c1Cl	0.92
O=c1c(-c2ccccc2)c1-c1ccccc1	0.79
Nc1ccn([C@H]2CC[C@@H](CO)O2)c(=O)n1	1.02
Cc1[nH]c(=O)c(C#N)cc1-c1ccncc1	1.02
C#C[C@]1(O)CC[C@H]2[C@@H]3[C@H](C)CC4=C(CCC(=O)C4)[C@H]3CC[C@@]21C	0.99
O=C(CCNNC(=O)c1ccncc1)NCc1ccccc1	0.97
